# system-under-test: human recombinant transporter protein serotonin (SERT) (Homo sapiens (Human))
# assay-comment: radioligand binding assay, serotonin transporter
# condition: 11 test concentrations 0.1 nM to 1 μM, duplicates, hydrochloride salts
endpoint-label: pKi
Schema: pKi number; meaning minus log10 of the concentration expressed in molar units.

The examples below pair each entry with its known result.
INSERT INTO results (compound, system_under_test, reported_measurement) VALUES
  ('CCCCSCCCCNC(CC(C)C)C1(c2ccc(Cl)c(Cl)c2)CCC1 (centres unmarked) [Compound 13d]', 'human recombinant transporter protein serotonin (SERT) (Homo sapiens (Human))', 7.18),
  ('CCOCCCCN[C@H](CC(C)C)C1(c2ccc(Cl)c(Cl)c2)CCC1 [Compound 8j]', 'human recombinant transporter protein serotonin (SERT) (Homo sapiens (Human))', 9.10);

Write down measured pKi (human recombinant transporter protein serotonin (SERT) (Homo sapiens (Human))) for this compound. CCS(=O)(=O)CCCCNC(CC(C)C)C1(c2ccc(Cl)c(Cl)c2)CCC1 (centres unmarked) [Compound 17a]
7.42

Write down measured pKi (human recombinant transporter protein serotonin (SERT) (Homo sapiens (Human))) for this compound. CCSCCNC(CC)C1(c2ccc(Cl)c(Cl)c2)CCC1 (centres unmarked) [Compound 13f]
6.65

====

# system-under-test: human recombinant transporter protein dopamine (DAT) (Homo sapiens (Human), UniProt Q01959)
# Sequence (Q01959 whole entry): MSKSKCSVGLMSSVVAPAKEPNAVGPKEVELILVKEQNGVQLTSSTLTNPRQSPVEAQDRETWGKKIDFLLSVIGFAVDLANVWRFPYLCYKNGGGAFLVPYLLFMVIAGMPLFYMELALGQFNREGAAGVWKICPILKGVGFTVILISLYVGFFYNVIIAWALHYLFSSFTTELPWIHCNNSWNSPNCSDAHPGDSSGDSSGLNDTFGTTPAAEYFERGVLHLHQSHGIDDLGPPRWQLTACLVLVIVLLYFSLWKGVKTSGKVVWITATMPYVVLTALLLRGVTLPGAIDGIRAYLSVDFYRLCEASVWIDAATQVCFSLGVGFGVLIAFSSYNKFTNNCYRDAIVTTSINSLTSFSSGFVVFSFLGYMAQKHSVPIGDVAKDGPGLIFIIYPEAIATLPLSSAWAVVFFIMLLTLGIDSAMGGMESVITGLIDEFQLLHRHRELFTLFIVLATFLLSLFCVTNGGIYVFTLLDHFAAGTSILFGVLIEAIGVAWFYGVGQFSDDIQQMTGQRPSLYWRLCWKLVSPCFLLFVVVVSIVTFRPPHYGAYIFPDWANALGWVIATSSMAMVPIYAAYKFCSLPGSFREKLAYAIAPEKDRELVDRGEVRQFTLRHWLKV
# assay-comment: radioligand binding assay, dopamine transporter
# condition: 11 test concentrations 0.1 nM to 1 μM, duplicates, hydrochloride salts
Readings of pKi for the listed molecules
Schema: pKi number; meaning minus log10 of the concentration expressed in molar units.

Write down pKi measured for item CCOCCNC(CC(C)C)C1(c2ccc(Cl)c(Cl)c2)CCC1 (centres unmarked)
8.62

Write down pKi measured for item CCSCCNC(CC)C1(c2ccc(Cl)c(Cl)c2)CCC1 (centres unmarked) [Compound 13f]
7.31

Write down pKi measured for item CCSCCCCNC(CC(C)C)C1(c2ccc(Cl)c(Cl)c2)CCC1 (centres unmarked) [Compound 13c]
7.62

====

# system-under-test: human recombinant transporter protein norepinephrine (NET) (Homo sapiens (Human))
# assay-comment: radioligand binding assay, norepinephrine transporter
# condition: 11 test concentrations 0.1 nM to 1 μM, duplicates, hydrochloride salts
endpoint-label: log10(Ki) (log10 of the value in nM)
# log10 transformed; quantity=Ki; unit=nM

Write down log10(Ki) measured for item CCOCCCCNC(CC(C)C)C1(c2ccc(SC)cc2)CCC1 (centres unmarked)
1.57

====

# system-under-test: human recombinant transporter protein serotonin (SERT) (Homo sapiens (Human), UniProt P31645)
# assay-comment: radioligand binding assay, serotonin transporter
# condition: 11 test concentrations 0.1 nM to 1 μM, duplicates, hydrochloride salts
endpoint-label: pKi
Schema: pKi number; meaning minus log10 of the concentration expressed in molar units.

The examples below pair each entry with its known result.
INSERT INTO results (molecule, endpoint_label, reported_measurement) VALUES
  ('CCSCCCCNC(CC(C)C)C1(c2ccc(Cl)cc2)CCC1 (stereo not shown) [Compound 12b]', 'pKi', 7.73),
  ('CCCOCCCN[C@H](CC(C)C)C1(c2ccc(Cl)c(Cl)c2)CCC1', 'pKi', 8.42),
  ('CCOc1ccc(C2(C(CC(C)C)NCCSCC)CCC2)cc1 (stereo not shown) [Compound 12c]', 'pKi', 8.48);

Write down pKi measured for item CCSCCCCNC(CC(C)C)C1(c2ccc(Cl)c(Cl)c2)CCC1 (stereo not shown) [Compound 13c]
7.83

Write down pKi measured for item COCCCCN[C@H](CC(C)C)C1(c2ccc(Cl)c(Cl)c2)CCC1
8.92

Write down pKi measured for item CCOCCNC(CC(C)C)C1(c2ccc(Cl)c(Cl)c2)CCC1 (stereo not shown)
8.85

Write down pKi measured for item CCOCCCCNC(CC(C)C)C1(c2ccc(SC)cc2)CCC1 (stereo not shown)
8.52

====

Readings of pKi for the listed molecules
# system-under-test: human recombinant transporter protein dopamine (DAT) (Homo sapiens (Human), UniProt Q01959)
# assay-comment: radioligand binding assay, dopamine transporter
# condition: 11 test concentrations 0.1 nM to 1 μM, duplicates, hydrochloride salts
Schema: pKi number; meaning minus log10 of the concentration expressed in molar units.

The examples below pair each entry with its known result.
INSERT INTO assay_data (molecule, reported_measurement) VALUES
  ('CCOCCCCNC(CC(C)C)C1(c2ccc(SC)cc2)CCC1 (centres unmarked) [Compound 7g]', 7.04),
  ('CCOCCCCN[C@H](CC(C)C)C1(c2ccc(Cl)c(Cl)c2)CCC1 [Compound 8j]', 8.94),
  ('CCS(=O)(=O)CCCCNC(CC(C)C)C1(c2ccc(Cl)c(Cl)c2)CCC1 (centres unmarked) [Compound 17a]', 7.53),
  ('CCSCCCCNC(CC(C)C)C1(c2ccc(Cl)cc2)CCC1 (centres unmarked) [Compound 12b]', 7.17),
  ('CCOc1ccc(C2(C(CC(C)C)NCCSCC)CCC2)cc1 (centres unmarked) [Compound 12c]', 6.94),
  ('CCCOCCCN[C@H](CC(C)C)C1(c2ccc(Cl)c(Cl)c2)CCC1 [Compound 8d]', 8.26);

Write down pKi measured for item COCCCCN[C@H](CC(C)C)C1(c2ccc(Cl)c(Cl)c2)CCC1 [Compound 8h]
8.62

Write down pKi measured for item CCCCSCCCCNC(CC(C)C)C1(c2ccc(Cl)c(Cl)c2)CCC1 (centres unmarked) [Compound 13d]
6.98

====

# system-under-test: human recombinant transporter protein norepinephrine (NET) (Homo sapiens (Human), UniProt P23975)
# Sequence (P23975 whole entry): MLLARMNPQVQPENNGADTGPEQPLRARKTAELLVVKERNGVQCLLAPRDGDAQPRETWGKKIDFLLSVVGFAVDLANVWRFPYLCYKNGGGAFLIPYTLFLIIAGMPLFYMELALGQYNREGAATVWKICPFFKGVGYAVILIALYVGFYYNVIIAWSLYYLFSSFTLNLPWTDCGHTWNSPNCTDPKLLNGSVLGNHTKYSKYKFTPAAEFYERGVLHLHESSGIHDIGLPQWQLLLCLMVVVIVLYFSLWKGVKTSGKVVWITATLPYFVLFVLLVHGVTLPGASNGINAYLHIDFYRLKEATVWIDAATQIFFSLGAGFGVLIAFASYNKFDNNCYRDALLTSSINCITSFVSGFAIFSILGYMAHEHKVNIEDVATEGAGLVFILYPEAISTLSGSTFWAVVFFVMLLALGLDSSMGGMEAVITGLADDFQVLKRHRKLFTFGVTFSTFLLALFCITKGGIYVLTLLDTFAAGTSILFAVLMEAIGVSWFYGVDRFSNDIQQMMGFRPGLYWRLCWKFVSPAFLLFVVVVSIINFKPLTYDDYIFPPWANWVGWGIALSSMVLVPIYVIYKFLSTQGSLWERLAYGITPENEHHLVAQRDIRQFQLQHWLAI
# assay-comment: radioligand binding assay, norepinephrine transporter
# condition: 11 test concentrations 0.1 nM to 1 μM, duplicates, hydrochloride salts
endpoint-label: Ki (nM)
Express your answer in nM, writing the number without its unit.

INSERT INTO measurements (compound, unit_of_measure, reported_measurement) VALUES
  ('CCS(=O)(=O)CCCCNC(CC(C)C)C1(c2ccc(Cl)c(Cl)c2)CCC1 (stereo not shown) [Compound 17a]', 'nM', 44.7),
  ('CCSCCNC(CC)C1(c2ccc(Cl)c(Cl)c2)CCC1 (stereo not shown) [Compound 13f]', 'nM', 119),
  ('CCSCCCCNC(CC(C)C)C1(c2ccc(Cl)c(Cl)c2)CCC1 (stereo not shown) [Compound 13c]', 'nM', 17.1),
  ('CCOc1ccc(C2(C(CC(C)C)NCCSCC)CCC2)cc1 (stereo not shown) [Compound 12c]', 'nM', 1420),
  ('CCCCSCCCCNC(CC(C)C)C1(c2ccc(Cl)c(Cl)c2)CCC1 (stereo not shown) [Compound 13d]', 'nM', 51);

Write down Ki measured for item CCCOCCCN[C@H](CC(C)C)C1(c2ccc(Cl)c(Cl)c2)CCC1 [Compound 8d]
72

Write down Ki measured for item CCSCCCCNC(CC(C)C)C1(c2ccc(Cl)cc2)CCC1 (stereo not shown) [Compound 12b]
51.9

Write down Ki measured for item COCCCCN[C@H](CC(C)C)C1(c2ccc(Cl)c(Cl)c2)CCC1 [Compound 8h]
12.7

Write down Ki measured for item CCOCCCCN[C@H](CC(C)C)C1(c2ccc(Cl)c(Cl)c2)CCC1 [Compound 8j]
11

Write down Ki measured for item CCOCCNC(CC(C)C)C1(c2ccc(Cl)c(Cl)c2)CCC1 (stereo not shown) [Compound 8a]
46.7
